Where do the numbers come from? From patent US20150329642A1.

molecular target: T1, cMetECDHis (human, UniProt P08581 25-932, limits assumed, biotinylated in the cross-block ELISA of Example 17); assay: cross-block ELISA; competitor 005
T1 construct: Expressed in HEK-293F cells; also called soluble cMetECDHis; biotinylated cMetECDHis
Attribute: residual binding, % of no competitor
Measured Endpoint: residual binding, % of no competitor (%)

* IgG1-1016-069 (antibody, V domains shown, also called clone 069; TH1016-069) VH: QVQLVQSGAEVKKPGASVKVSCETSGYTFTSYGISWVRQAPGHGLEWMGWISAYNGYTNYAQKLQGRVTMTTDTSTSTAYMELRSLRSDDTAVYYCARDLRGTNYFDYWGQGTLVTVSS VL: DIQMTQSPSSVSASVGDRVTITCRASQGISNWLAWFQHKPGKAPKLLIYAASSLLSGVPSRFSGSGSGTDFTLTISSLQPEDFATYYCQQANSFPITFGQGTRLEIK | 102
* anti-c-Met HuMab 005 (IgG1) (antibody, V domains shown, also called TH1016-005; PC1016-005) VH: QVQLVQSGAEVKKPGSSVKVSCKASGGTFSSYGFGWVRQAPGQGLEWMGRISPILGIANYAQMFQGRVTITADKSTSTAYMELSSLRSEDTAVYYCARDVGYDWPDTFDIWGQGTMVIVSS VL: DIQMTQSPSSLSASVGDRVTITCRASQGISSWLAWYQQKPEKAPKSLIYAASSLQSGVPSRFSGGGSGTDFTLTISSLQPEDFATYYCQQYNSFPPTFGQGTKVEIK | 7.7
* anti-c-Met HuMab 035 (IgG1) (antibody, V domains shown, also called P1016-035; TH1016-035-D09) VH: EVQLVQSGAEVKKPGESLKISCKGSGYSFTSYWIGWVRQMPGKGLEWMGIIYPGDSDTRYSPSFQGQVTISADKSISTAYLQWNSLKASDTAMYYCARQEITGEFDYWGQGTLVTVSS VL: AIQLTQSPSSLSASVGDRVTITCRASQGISSALAWYQQKPGKAPKLLIYDASSLESGVPSRFSGSGSGTDFTLTISSLQPEDFATYYCQQFNSYPMYTFGQGTKLEIK | 36.7
